From: the RNAGym collection of RNA variant scans (doi:10.7554/elife.80360)

B1: CPEB3 Ribozyme (parent)
chain: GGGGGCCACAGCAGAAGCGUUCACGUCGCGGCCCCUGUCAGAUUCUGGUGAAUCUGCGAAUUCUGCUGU

# Variants of: B1
# PROTOCOL DESCRIPTION: self-cleavage, relative activity (ratio to wild type); higher = more cleavage; co-transcriptional
Measured self-cleavage values are reported for all entries that follow.

{"columns": ["VARIANT NOTATION", "self-cleavage"],
 "data": [
  ["G25C G65U", 0.151],
  ["C6U A13C", 0.85],
  ["U53G U64G", 0.6],
  ["U20A U67G", 0.271],
  ["G5U C66G", 0.133],
  ["U26A C27G", 0.121],
  ["G31U U64A", 0.446],
  ["G14U G28U", 0.164],
  ["C7A U61G", 0.378],
  ["U21C C35U", 0.716],
  ["G11A G68U", 0.915],
  ["U20C C66U", 0.272],
  ["G11C A15U", 0.188],
  ["C32G G37A", 0.195],
  ["A51U U62A", 0.931],
  ["G2C U69A", 0.111],
  ["C54G G58C", 0.829],
  ["G19C U20C", 0.19],
  ["G1C U55C", 0.167],
  ["U36G U67A", 0.0785],
  ["G37A U44G", 0.223],
  ["C24U U69A", 0.895]
]}
